Please go through the items and note down their Kd.
Assay Target: PKAR3 (protein kinase A regulatory subunit 3) (Leishmania donovani, UniProt A0A3S7X836)
Sequence (A0A3S7X836 entry or part of it): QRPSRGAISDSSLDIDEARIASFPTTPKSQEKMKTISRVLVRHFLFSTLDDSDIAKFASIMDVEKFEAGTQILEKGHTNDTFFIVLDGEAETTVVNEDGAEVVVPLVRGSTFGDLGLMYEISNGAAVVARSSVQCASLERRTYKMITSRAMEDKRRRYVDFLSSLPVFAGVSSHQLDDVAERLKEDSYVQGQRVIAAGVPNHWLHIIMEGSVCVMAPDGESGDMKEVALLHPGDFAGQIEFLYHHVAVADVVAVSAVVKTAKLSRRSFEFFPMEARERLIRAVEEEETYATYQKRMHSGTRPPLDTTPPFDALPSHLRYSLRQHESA
Test Method Notes: isothermal titration calorimetry (ITC), one-site model
Numeric only. Scale: nM

INPUT: Need Kd, item N#Cc1cn([C@@H]2O[C@H](CO)[C@@H](O)[C@H]2O)c2ncnc(N)c12 [Toyo, Toyocamycin]
OUTPUT: 3.8

INPUT: Any idea what Kd was measured for N#Cc1cn([C@@H]2O[C@H](CO)[C@@H](O)[C@H]2O)c2ncnc(O)c12 [7-CN-7-C-Ino, 7-cyano-7-deaza-inosine] ?
OUTPUT: 1
